- testMethodNotes: log Kow (octanol/water partition coefficient)
- Type: physicochemical
- recordedConditions: 1-octanol/water
- Description: In a further preferred embodiment, the individual fragrances of the fragrance mixture of the invention have a log Kow value of 1 to 10, preferably of 1.5 to 8, more preferably of 2 to 5.5. The log Kow (octanol/water partition coefficient) is a measure of the lipophilicity of a substance. In terms of calculation, it is the partition coefficient Kow of a substance in a mixture of 1-octanol and water. […]
quantityMeasured: log Kow

// worked examples, log Kow included
                                   molecule  quantitymeasured  recordedmeasurement
0                    CC(C)=CCC[C@@H](C)CC#N           log Kow                 3.55
1  CCCCC/C=C\CCC=O [Example 10, cis-4-Decenal]           log Kow                 3.55
2  CC(C)=C[C@H]1C[C@@H](C)CCO1 [Example 1, Rose oxide]           log Kow                 3.58
3          CCOC(=O)[C@H]1O[C@@]1(C)c1ccccc1           log Kow                    3

(A) COc1nccnc1CC(C)C
(B) CC(C)=CCCC1=CC[C@](C)(C=O)CC1
Task item: Which entry shows the lesser value of log Kow here, A or B ? I would appreciate it if you answered with the label of your choice.
Reply: A
